Target: mGlu1 receptor (Rattus norvegicus, UniProt P23385)
Assay: [3H]Compound A binding to rat brain membranes (cortex, hippocampus, striatum, cerebellum)
Conditions: membranes from rat striatum; mean ± SD, 3 experiments
Description: Tissue preparation. Male Wistar rats (˜200 g) were sacrificed by decapitation. The brains were rapidly removed and cortex, hippocampus, striatum and cerebellum were immediately dissected. […] In vitro binding assay. […] After incubation for 30 min at 4° C., the labelled membranes were washed and harvested by rapid vacuum filtration over Whatman GF/C glass-fibre filters using a 40-well filtration manifold and radioactivity collected on the filters was counted as above. […]

Compound | Kd (pM)
[3H]c1ccc(CC(=O)c2ccc3nc4c(cc3c2)CCCO4)cc1 [[^3H]Compound A] | 840
